Provide the recorded % inhibition of SMAD7 mRNA expression for the entries that follow.
# System: human SMAD7 mRNA
# Experiment: Dose-dependent inhibition of human SMAD7 mRNA expression in Hep3B cells (Example 3, Study 1 and 2)
# Assay type: cell-based
# Condition Parameters: 312.5 nM, electroporation, approximately 16 hours, Study 1, relative to untreated control cells
Strand notation (5' to 3'): a small letter for the sugar, then the base; units joined by * are phosphorothioate-linked, units joined directly phosphodiester-linked; [ ] holds rarer units or linkages, { } end groups; capitals alone tell only the bases. e = 2'-O-(2-methoxyethyl) (MOE); [5mC] = 5-methylcytosine; d = 2'-deoxy (DNA)
Answers are plain numbers, in %.

771788 (antisense e[5mC]*e[5mC]*eA*eA*e[5mC]*dT*d[5mC]*dT*dG*dA*dA*d[5mC]*dG*dG*dA*eA*eA*eG*eA*eA) [compound 771788] | 1
771576 (antisense eG*eG*eG*e[5mC]*eA*dG*dG*dA*dG*dA*dG*dA*d[5mC]*dA*d[5mC]*e[5mC]*eG*e[5mC]*eT*eT) [compound 771576] | 9
771937 (antisense eT*e[5mC]*e[5mC]*eA*eG*dT*dG*d[5mC]*dT*dT*dG*dT*dG*d[5mC]*dA*eT*eG*eT*eG*e[5mC]) [compound 771937] | 0
771610 (antisense eA*e[5mC]*e[5mC]*eT*eG*dA*dT*dG*dT*d[5mC]*dA*d[5mC]*d[5mC]*dA*dG*eG*eG*e[5mC]*eA*eG) [compound 771610] | 0
771944 (antisense eG*eG*eT*eA*eA*dT*dT*dT*dT*d[5mC]*d[5mC]*dT*d[5mC]*dA*dA*e[5mC]*eA*eG*eG*e[5mC]) [compound 771944] | 0

// each listed substance needs a value for % inhibition of SMAD7 mRNA expression
1. 771762 (antisense eG*eT*e[5mC]*eA*e[5mC]*d[5mC]*dA*d[5mC]*d[5mC]*dG*dA*dT*dG*d[5mC]*dA*eT*e[5mC]*e[5mC]*eA*eA) [compound 771762]
2. 771556 (antisense e[5mC]*e[5mC]*e[5mC]*eT*eT*d[5mC]*dA*dT*dA*d[5mC]*dA*d[5mC]*dT*dG*dT*eG*eT*eT*eT*eG) [compound 771556]

1: 0; 2: 1
